assayed_target: Estrogen receptor (Homo sapiens, UniProt P03372)
Sequence (P03372 whole entry): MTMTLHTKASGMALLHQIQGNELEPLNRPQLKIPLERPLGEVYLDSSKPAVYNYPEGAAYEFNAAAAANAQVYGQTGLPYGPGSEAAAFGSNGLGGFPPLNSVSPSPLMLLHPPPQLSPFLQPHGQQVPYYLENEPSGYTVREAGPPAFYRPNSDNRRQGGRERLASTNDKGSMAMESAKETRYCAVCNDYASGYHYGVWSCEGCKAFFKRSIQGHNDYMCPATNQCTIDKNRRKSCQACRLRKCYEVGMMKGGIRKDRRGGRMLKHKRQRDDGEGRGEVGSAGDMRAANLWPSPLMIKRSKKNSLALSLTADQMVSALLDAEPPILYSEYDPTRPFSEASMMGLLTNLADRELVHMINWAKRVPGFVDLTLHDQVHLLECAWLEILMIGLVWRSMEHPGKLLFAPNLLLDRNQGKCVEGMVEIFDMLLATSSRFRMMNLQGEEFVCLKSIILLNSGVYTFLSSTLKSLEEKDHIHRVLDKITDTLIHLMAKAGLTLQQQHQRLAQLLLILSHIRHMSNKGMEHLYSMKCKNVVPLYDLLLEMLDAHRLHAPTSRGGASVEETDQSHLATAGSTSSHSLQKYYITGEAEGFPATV
method_summary: Inhibition of binding to ER in Ad5-wt-ER-infected HAECT1 cells by NF-kappaB-mediated luciferase reporter
Assay type: functional, cell-based
condition_parameters: read-out: IC50
Quick list: pIC50 per entry.
Recall that pIC50 is obtained by taking minus log10 of the concentration measured in molar.

pIC50 recorded for this compound, `CCN(c1ccccc1Br)S(=O)(=O)c1ccc(O)cc1` , is 7.05

pIC50 recorded for this compound, CC1CCc2ccccc2N1S(=O)(=O)c1ccc(O)cc1 (configuration not stated) , is 6.32

pIC50 recorded for this compound, `CCCN(c1c(C)cccc1C)S(=O)(=O)c1ccc(O)c(C)c1` , is 7.85

pIC50 recorded for this compound, `CCCN(c1c(C)cccc1Cl)S(=O)(=O)c1ccc(O)c(C)c1` , is 7.59

pIC50 recorded for this compound, `CCN(c1ccccc1)S(=O)(=O)c1ccc(O)c(C)c1` , is 6.48

pIC50 recorded for this compound, `C=CCN(c1ccccc1)S(=O)(=O)c1ccc(O)cc1` , is 6.63

pIC50 recorded for this compound, `CCCN(c1ccccc1C)S(=O)(=O)c1ccc(O)c(C)c1` , is 6.96
